- System: PXR homodimer (NR concentration 270 nM)
- EXPERIMENTAL DETAILS: PBM binding z-score (relative to random genomic background probes); higher = stronger binding; sequences stand for … in GC…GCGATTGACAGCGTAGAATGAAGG
RESULT TYPE: PBM binding z-score
Reply with just the number.

Tell me PBM binding z-score reported for `GCATATAGGTCATACAAGGTGAAAGTCCGATTGT`
0.812

Tell me PBM binding z-score reported for `GCTTACGGGTCAAAGGCTATAGCATGAATAGAAT`
0.0124

Tell me PBM binding z-score reported for `CCTCGCAGGACAACAGGAGGTCAGAGCTGCCAGA`
0.261

Tell me PBM binding z-score reported for `TCTATTAGTTTAAGGGCAACCGACGAGTCCGTTT`
1.67

Tell me PBM binding z-score reported for `TCTCGGAGGACACGAAGGTTAGAGCTTTCCAGAG`
-0.704

Tell me PBM binding z-score reported for `ATCTCAAGGTAACAAGTTCAGTGAAAGAGAGGAC`
2.27

Tell me PBM binding z-score reported for `CTTCAAAGTTCAACTAAGGTAACGTAAAGCACGC`
4.16

Tell me PBM binding z-score reported for `ACTTACGCGTCAACGAGGTTATAGCACGCGTATA`
-0.0402

Tell me PBM binding z-score reported for `TCGAGTAGGTTACCAATGGGTCATTCAGCTTTCT`
-0.563

Tell me PBM binding z-score reported for `ATCTCCAGGTAACCAAGTTCAGTGAATGCCGAAC`
2.55

Tell me PBM binding z-score reported for `AGAATGAGGTTATACGTAGATCAGGGACGAAAGT`
0.405

Tell me PBM binding z-score reported for `CGAACTAGGTCATTCACAGGACAGTGAATAGTAA`
0.314
